Target: T1, MIS12 complex (Mis12, Pmf1, Dsn1, Nsl1), wild type, full length (Homo sapiens, UniProt Q9H081 1-205; Q6P1K2 1-205; Q9H410 1-356; Q96IY1 1-281)
T1 chain 1: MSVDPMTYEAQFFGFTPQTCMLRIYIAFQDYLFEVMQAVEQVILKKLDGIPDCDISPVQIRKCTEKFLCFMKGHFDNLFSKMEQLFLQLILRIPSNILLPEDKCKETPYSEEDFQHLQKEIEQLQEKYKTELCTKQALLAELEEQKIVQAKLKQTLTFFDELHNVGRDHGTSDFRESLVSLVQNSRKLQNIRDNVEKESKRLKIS
T1 chain 2: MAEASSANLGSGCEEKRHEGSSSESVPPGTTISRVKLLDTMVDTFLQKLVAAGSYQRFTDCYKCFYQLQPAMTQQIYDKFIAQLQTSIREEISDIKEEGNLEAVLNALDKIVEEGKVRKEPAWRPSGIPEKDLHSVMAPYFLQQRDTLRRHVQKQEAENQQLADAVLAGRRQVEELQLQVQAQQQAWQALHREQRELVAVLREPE
T1 chain 3: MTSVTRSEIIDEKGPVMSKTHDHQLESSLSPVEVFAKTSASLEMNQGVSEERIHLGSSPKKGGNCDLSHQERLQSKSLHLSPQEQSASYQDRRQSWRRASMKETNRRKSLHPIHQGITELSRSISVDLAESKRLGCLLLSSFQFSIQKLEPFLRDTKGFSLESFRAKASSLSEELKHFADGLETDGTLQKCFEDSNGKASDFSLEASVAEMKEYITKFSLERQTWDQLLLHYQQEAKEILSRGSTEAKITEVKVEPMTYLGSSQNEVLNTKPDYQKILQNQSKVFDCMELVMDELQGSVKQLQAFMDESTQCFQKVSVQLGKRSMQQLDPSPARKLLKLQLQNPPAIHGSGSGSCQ
T1 chain 4: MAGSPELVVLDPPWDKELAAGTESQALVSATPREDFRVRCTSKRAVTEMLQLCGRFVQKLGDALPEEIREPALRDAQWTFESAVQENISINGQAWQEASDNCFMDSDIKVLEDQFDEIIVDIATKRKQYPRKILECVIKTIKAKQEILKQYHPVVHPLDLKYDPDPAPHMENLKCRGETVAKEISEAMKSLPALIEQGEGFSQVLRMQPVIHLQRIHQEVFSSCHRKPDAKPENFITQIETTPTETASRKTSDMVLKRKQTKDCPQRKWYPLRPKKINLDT
Experiment: ITC

Binder: Ac-RRQSWRRASMKETNRRKSLHPIAW-NH2 (Ala-Trp added for determination of concentration by absorption at 280 nm; source: synthetic peptide (Cambridge Research Biochemicals)) [Dsn1^92–113 auto-inhibitory peptide, wild type]
Kd: 214 µM
